All figures here come from patent US20020111274A1.

system: ORYSAT Rice, Tebonnet; assay: Postemergence herbicidal evaluation, ORYSAT; format: in vivo, Oryza sativa, (L.); parameters: scale not given here; settings: 0.062 kg/ha, postemergence spray, rated about two-three weeks after treatment
I'd appreciate it if you marked entries rule met when Postemergence herbicidal rating ORYSAT is lower than 4 and rule not met when it is not.

Does Cc1ccccc1-n1nnc2cc(F)c(-n3c(=O)cc(C(F)(F)F)n(C)c3=O)cc21 have Postemergence herbicidal rating ORYSAT strictly under 4?
rule met

Does CCc1cccc(-n2nnc3cc(F)c(-n4c(=O)cc(C(F)(F)F)n(C)c4=O)cc32)c1 have Postemergence herbicidal rating ORYSAT strictly under 4?
rule met

Does Cn1c(C(F)(F)F)cc(=O)n(-c2cc3c(cc2F)nnn3-c2ccc(OCC(=O)O)cc2)c1=O have Postemergence herbicidal rating ORYSAT strictly under 4?
rule met

Does COCc1ccccc1-n1nnc2cc(F)c(-n3c(=O)cc(C(F)(F)F)n(C)c3=O)cc21 have Postemergence herbicidal rating ORYSAT strictly under 4?
rule not met

Does COc1ccc(C)cc1-n1nnc2cc(F)c(-n3c(=O)cc(C(F)(F)F)n(C)c3=O)cc21 have Postemergence herbicidal rating ORYSAT strictly under 4?
rule not met

Does C#CCOC(=O)COc1ccc(C)cc1-n1nnc2cc(F)c(-n3c(=O)cc(C(F)(F)F)n(C)c3=O)cc21 have Postemergence herbicidal rating ORYSAT strictly under 4?
rule not met

Does C=CCOc1ccc(-n2nnc3cc(F)c(-n4c(=O)cc(C(F)(F)F)n(C)c4=O)cc32)c(C)c1 have Postemergence herbicidal rating ORYSAT strictly under 4?
rule met

Does Cc1ccc(OCC(=O)O)cc1-n1nnc2cc(F)c(-n3c(=O)cc(C(F)(F)F)n(C)c3=O)cc21 have Postemergence herbicidal rating ORYSAT strictly under 4?
rule not met

Does COC(=O)COc1ccc(C)cc1-n1nnc2cc(F)c(-n3c(=O)cc(C(F)(F)F)n(C)c3=O)cc21 have Postemergence herbicidal rating ORYSAT strictly under 4?
rule not met

Does COC(=O)COc1ccccc1-n1nnc2cc(F)c(-n3c(=O)cc(C(F)(F)F)n(C)c3=O)cc21 have Postemergence herbicidal rating ORYSAT strictly under 4?
rule not met

Does CC(C)c1ccc(-n2nnc3cc(F)c(-n4c(=O)cc(C(F)(F)F)n(C)c4=O)cc32)cc1 have Postemergence herbicidal rating ORYSAT strictly under 4?
rule met

Does CCc1ccc(-n2nnc3cc(F)c(-n4c(=O)cc(C(F)(F)F)n(C)c4=O)cc32)cc1COC have Postemergence herbicidal rating ORYSAT strictly under 4?
rule not met

* * *

tested on: GLXMAW Soybean, Williams; experiment: Preemergence herbicidal evaluation, GLXMAW; type: in vivo, Glycine max, (L.) Merr. cv Williams; set-up: scale not given here; conditions: preemergence, rate 0.125 kg/ha
Metric Name: GLXMAW herbicidal rating

Some solved cases for reference:
# Smiles Repr, System Tested, GLXMAW herbicidal rating
rows = [
    ("COc1ccc(-n2nnc3cc(F)c(-n4c(=O)cc(C(F)(F)F)n(C)c4=O)cc32)c(C)c1", "GLXMAW Soybean, Williams", 5.0),
    ("C=CCOc1ccc(-n2nnc3cc(F)c(-n4c(=O)cc(C(F)(F)F)n(C)c4=O)cc32)c(C)c1", "GLXMAW Soybean, Williams", 1.0),
]

For CCc1ccc(-n2nnc3cc(F)c(-n4c(=O)cc(C(F)(F)F)n(C)c4=O)cc32)cc1COC , what is its reported GLXMAW herbicidal rating?
0.0

For COc1ccc(Cl)cc1-n1nnc2cc(F)c(-n3c(=O)cc(C(F)(F)F)n(C)c3=O)cc21 , what is its reported GLXMAW herbicidal rating?
2.0

For COc1ccc(C)c(-n2nnc3cc(F)c(-n4c(=O)cc(C(F)(F)F)n(C)c4=O)cc32)c1 , what is its reported GLXMAW herbicidal rating?
0.0

For CCc1ccccc1-n1nnc2cc(F)c(-n3c(=O)cc(C(F)(F)F)n(C)c3=O)cc21 , what is its reported GLXMAW herbicidal rating?
1.5

For COC(=O)COc1ccc(C)c(-n2nnc3cc(F)c(-n4c(=O)cc(C(F)(F)F)n(C)c4=O)cc32)c1 , what is its reported GLXMAW herbicidal rating?
0.0

For CCc1ccc(-n2nnc3cc(F)c(-n4c(=O)cc(C(F)(F)F)n(C)c4=O)cc32)cc1 , what is its reported GLXMAW herbicidal rating?
3.0

For Cc1ccc(O)cc1-n1nnc2cc(F)c(-n3c(=O)cc(C(F)(F)F)n(C)c3=O)cc21 , what is its reported GLXMAW herbicidal rating?
1.0

* * *

tested on: AMBEL Ragweed, Common; test: Postemergence herbicidal evaluation, AMBEL; format: in vivo, Ambrosia artemisifolia, L.; parameters: scale not given here; conditions: 0.008 kg/ha, postemergence spray, rated about two-three weeks after treatment
Metric Name: Postemergence herbicidal rating AMBEL
In your answer, state the number alone without any accompanying words.

# Smiles Repr, System Tested, Assay Result
rows = [
    ("COCc1ccccc1-n1nnc2cc(F)c(-n3c(=O)cc(C(F)(F)F)n(C)c3=O)cc21", "AMBEL Ragweed, Common", 4.0),
    ("Cc1ccc(O)c(-n2nnc3cc(F)c(-n4c(=O)cc(C(F)(F)F)n(C)c4=O)cc32)c1", "AMBEL Ragweed, Common", 0.0),
    ("COc1ccc(-n2nnc3cc(F)c(-n4c(=O)cc(C(F)(F)F)n(C)c4=O)cc32)c(C)c1", "AMBEL Ragweed, Common", 0.0),
    ("CC(C)c1ccc(-n2nnc3cc(F)c(-n4c(=O)cc(C(F)(F)F)n(C)c4=O)cc32)cc1", "AMBEL Ragweed, Common", 2.0),
    ("CCc1ccccc1-n1nnc2cc(F)c(-n3c(=O)cc(C(F)(F)F)n(C)c3=O)cc21", "AMBEL Ragweed, Common", 0.0),
    ("Cc1ccc(-n2nnc3cc(F)c(-n4c(=O)cc(C(F)(F)F)n(C)c4=O)cc32)cc1", "AMBEL Ragweed, Common", 0.0),
    ("C#CCOC(=O)COc1ccc(C)c(-n2nnc3cc(F)c(-n4c(=O)cc(C(F)(F)F)n(C)c4=O)cc32)c1", "AMBEL Ragweed, Common", 2.0),
]

As a next step, examine the compound that follows.
For COc1ccccc1-n1nnc2cc(F)c(-n3c(=O)cc(C(F)(F)F)n(C)c3=O)cc21 , what is its reported Postemergence herbicidal rating AMBEL?
2.0

* * *

test system: AMBEL Ragweed, Common; assay: Preemergence herbicidal evaluation, AMBEL; format: in vivo, Ambrosia artemisifolia, L.; set-up: scale not given here; details: preemergence, rate 0.062 kg/ha
I'd appreciate it if you marked entries Y when AMBEL herbicidal rating is lower than 3 and N when it is not.

Use the examples below as a reference point.
# Molecule, Classification
rows = [
    ("COc1ccc(C)cc1-n1nnc2cc(F)c(-n3c(=O)cc(C(F)(F)F)n(C)c3=O)cc21 [Example 18]", "N"),
    ("COc1ccc(C)c(-n2nnc3cc(F)c(-n4c(=O)cc(C(F)(F)F)n(C)c4=O)cc32)c1 [Example 22]", "Y"),
    ("COc1ccc(-n2nnc3cc(F)c(-n4c(=O)cc(C(F)(F)F)n(C)c4=O)cc32)cc1 [Example 27]", "N"),
    ("COC(=O)COc1ccccc1-n1nnc2cc(F)c(-n3c(=O)cc(C(F)(F)F)n(C)c3=O)cc21 [Example 35]", "N"),
    ("COC(=O)COc1ccc(C)cc1-n1nnc2cc(F)c(-n3c(=O)cc(C(F)(F)F)n(C)c3=O)cc21 [Example 34]", "N"),
    ("Cc1ccc(O)c(-n2nnc3cc(F)c(-n4c(=O)cc(C(F)(F)F)n(C)c4=O)cc32)c1 [Example 31]", "Y"),
    ("COc1ccccc1-n1nnc2cc(F)c(-n3c(=O)cc(C(F)(F)F)n(C)c3=O)cc21 [Example 16]", "N"),
    ("Cc1ccc(-n2nnc3cc(F)c(-n4c(=O)cc(C(F)(F)F)n(C)c4=O)cc32)cc1C [Example 23]", "Y"),
    ("C#CCOC(=O)COc1ccc(C)c(-n2nnc3cc(F)c(-n4c(=O)cc(C(F)(F)F)n(C)c4=O)cc32)c1 [Example 36]", "Y"),
    ("Cc1ccc(-n2nnc3cc(F)c(-n4c(=O)cc(C(F)(F)F)n(C)c4=O)cc32)cc1 [Example 19]", "N"),
]

Moving on to another molecule below.
Does COC(=O)COc1ccc(-n2nnc3cc(F)c(-n4c(=O)cc(C(F)(F)F)n(C)c4=O)cc32)c(C)c1 [Example 39] have AMBEL herbicidal rating strictly under 3?
Y

* * *

// ECHCG herbicidal rating lookup, one value per entry
test system: ECHOG Barnyardgrass; experiment: Preemergence herbicidal evaluation, ECHOG; assay type: in vivo, Echinochloa crus-galli, (L.) Beau; parameters: scale not given here; conditions: preemergence, rate 0.032 kg/ha
In your answer, state the number alone without any accompanying words.

# Molecule, Metric Name, Assay Result
data = [
    ("COC(=O)C(C)Oc1ccc(C)cc1-n1nnc2cc(F)c(-n3c(=O)cc(C(F)(F)F)n(C)c3=O)cc21 (stereo not shown)", "ECHCG herbicidal rating", 0.0),
    ("CC(C)c1ccc(-n2nnc3cc(F)c(-n4c(=O)cc(C(F)(F)F)n(C)c4=O)cc32)cc1", "ECHCG herbicidal rating", 0.0),
    ("COc1ccc(-n2nnc3cc(F)c(-n4c(=O)cc(C(F)(F)F)n(C)c4=O)cc32)c(C)c1", "ECHCG herbicidal rating", 0.0),
]

As a next step, examine the molecule that follows.
For COC(=O)COc1ccc(C)c(-n2nnc3cc(F)c(-n4c(=O)cc(C(F)(F)F)n(C)c4=O)cc32)c1 , what is its reported ECHCG herbicidal rating?
0.0
